test: Clearance in Beagle dog at 0.2 mg/kg, iv; type: ADME, organism-based, Canis lupus familiaris; design: dose 0.2 mg/kg, route intravenous; conditions: in vivo
OBSERVATION_TYPE: clearance
Answer with the value and then the unit.

Query: clearance; subject: CCc1nn(CCOCC(F)(F)F)c2c(Nc3ccncn3)nc(N3CCN[C@H](C)C3)nc12 18.5 mL/min/kg

----------
target: cGMP-specific 3',5'-cyclic phosphodiesterase (Homo sapiens); assay: Inhibition of PDE5
OBSERVATION_TYPE: IC50 (nM)
Report as a plain number; the unit nM is understood.

Query: IC50; subject: CCc1nn(CCOCC(F)(F)F)c2c(Nc3ccncn3)nc(N3CCN[C@H](C)C3)nc12 0.07

Query: IC50; subject: CCc1nn(CCOCC(F)(F)F)c2c(Nc3ccncn3)nc(N3CCOCC3)nc12 3.92

Query: IC50; subject: Cc1ccnc(Nc2nc(N3CCNCC3)nc3c(C)nn(CCOCC(F)(F)F)c23)c1 1.84

Query: IC50; subject: Cc1nn(CCOCC(F)(F)F)c2c(Nc3ccncn3)nc(N3CCN[C@@H](C)C3)nc12 0.94

Query: IC50; subject: CCc1nn(CCOCC(F)(F)F)c2c(Nc3ccccn3)nc(N3CCNCC3)nc12 0.65

Query: IC50; subject: CCc1nn(CCOCC(F)(F)F)c2c(Nc3ccncn3)nc(N(C)C3CCN(C)CC3)nc12 0.35

Query: IC50; subject: CCc1nn(CCOCC(F)(F)F)c2c(Nc3ccncn3)nc(N3CCNCC3)nc12 0.15

Query: IC50; subject: CCc1nn(CCOCC(F)(F)F)c2c(Nc3cccc(C)n3)nc(N3CCNCC3)nc12 1.01

Query: IC50; subject: Cc1cccc(Nc2nc(N3CCNCC3)nc3c(C)nn(CCOCC(F)(F)F)c23)n1 0.78
